src = the supplement of paper PMC11061612

Tested on: LNCaP-Clone-FGC (Prostate Carcinoma);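 further: after 72 h of two-drug dosing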
Experiment: Bliss excess, mean over the matrix (fraction); higher = more synergy
Parameter Measured: Bliss excess
Please reply with the value in numeric form only.

The recorded Bliss excess for CC1(C)CCC(CN2CCN(c3ccc(C(=O)NS(=O)(=O)c4ccc(NCC5CCOCC5)c([N+](=O)[O-])c4)c(Oc4cnc5[nH]ccc5c4)c3)CC2)=C(c2ccc(Cl)cc2)C1 [Venetoclax] + COc1cc(Nc2ncc3c(n2)-c2ccc(Cl)cc2C(c2c(F)cccc2OC)=NC3)ccc1C(=O)O [Alisertib] (first compound max 1 µM, 7x7, partner max 10 µM) is 0.0008

The recorded Bliss excess for C[C@@H]1COCCN1c1cc(C2([S@](C)(=N)=O)CC2)nc(-c2ccnc3[nH]ccc23)n1 [AZD6738] + O=C(c1cc(Cc2n[nH]c(=O)c3ccccc23)ccc1F)N1CCN(C(=O)C2CC2)CC1 [Olaparib] (first compound max 10 µM, 7x7, partner max 10 µM) is -0.0297

The recorded Bliss excess for COc1cccc(OCCCN)c1-c1cc(Nc2cnc(C#N)cn2)n[nH]1 [Prexasertib] + CCc1c2c(nc3ccc(O)cc13)-c1cc3c(c(=O)n1C2)COC(=O)[C@]3(O)CC [SN-38] (first compound max 1 µM, 7x7, partner max 0.3 µM) is -0.0782

The recorded Bliss excess for COc1cc2c(cc1OCCCCCOc1cc3c(cc1OC)C(=O)N1C=C(C)C[C@H]1C=N3)N=C[C@@H]1CC(C)=CN1C2=O [SG3199] + O=C(c1cc(Cc2n[nH]c(=O)c3ccccc23)ccc1F)N1CCN(C(=O)C2CC2)CC1 [Olaparib] (first compound max 0.001 µM, 7x7, partner max 10 µM) is 0.0189

The recorded Bliss excess for Cn1cnc2c(F)c(Nc3ccc(Br)cc3Cl)c(C(=O)NOCCO)cc21 [Selumetinib] + CC(C)n1c(=O)n(C)c2cnc3cc(F)c(-c4ccc(OCCCN5CCCCC5)nc4)cc3c21 [AZD1390] (first compound max 10 µM, 7x7, partner max 0.3 µM) is -0.0381

The recorded Bliss excess for Cn1cnc2c(F)c(Nc3ccc(Br)cc3Cl)c(C(=O)NOCCO)cc21 [Selumetinib] + C=CCn1c(=O)c2cnc(Nc3ccc(N4CCN(C)CC4)cc3)nc2n1-c1cccc(C(C)(C)O)n1 [AZD1775] (first compound max 10 µM, partner max 1 µM) is -0.15

The recorded Bliss excess for CN(CCO)CC[C@H](CSc1ccccc1)Nc1ccc(S(=O)(=O)NC(=O)c2ccc(N3CCC([C@@H](O)c4ccccc4-c4ccc(Cl)cc4)CC3)cc2)cc1S(=O)(=O)C(F)(F)F [AZD4320] + C=CCn1c(=O)c2cnc(Nc3ccc(N4CCN(C)CC4)cc3)nc2n1-c1cccc(C(C)(C)O)n1 [AZD1775] (first compound max 1 µM, partner max 1 µM) is -0.0222

The recorded Bliss excess for Cc1c2c(nn1C)CSCc1cc(n(C)n1)CSc1cc(c3ccccc3c1)OCCCc1c(C(=O)O)n(C)c3c-2c(Cl)ccc13 [AZD5991] + Cc1cc2ncnn2cc1Nc1ncc2c(n1)n(C1CCOCC1)c(=O)n2C [AZD7648] (first compound max 1 µM, 7x7, partner max 10 µM) is -0.0423

The recorded Bliss excess for CC1(C)CCC(CN2CCN(c3ccc(C(=O)NS(=O)(=O)c4ccc(NCC5CCOCC5)c([N+](=O)[O-])c4)c(Oc4cnc5[nH]ccc5c4)c3)CC2)=C(c2ccc(Cl)cc2)C1 [Venetoclax] + C1CN(CCC1(C(=O)N[C@@H](CCO)C2=CC=C(C=C2)Cl)N)C3=NC=NC4=C3C=CN4 [Capivasertib] (first compound max 1 µM, 7x7, partner max 3 µM) is -0.0464

The recorded Bliss excess for CN(CCO)CC[C@H](CSc1ccccc1)Nc1ccc(S(=O)(=O)NC(=O)c2ccc(N3CCC([C@@H](O)c4ccccc4-c4ccc(Cl)cc4)CC3)cc2)cc1S(=O)(=O)C(F)(F)F [AZD4320] + Cc1cc2ncnn2cc1Nc1ncc2c(n1)n(C1CCOCC1)c(=O)n2C [AZD7648] (first compound max 1 µM, 7x7, partner max 10 µM) is -0.0622

The recorded Bliss excess for CC1(C)CCC(CN2CCN(c3ccc(C(=O)NS(=O)(=O)c4ccc(NCC5CCOCC5)c([N+](=O)[O-])c4)c(Oc4cnc5[nH]ccc5c4)c3)CC2)=C(c2ccc(Cl)cc2)C1 [Venetoclax] + CN(C)CCCOc1ccc(-c2ccc3ncc4c(c3c2)n(C2CCOCC2)c(=O)n4C)cn1 [AZD0156] (first compound max 1 µM, 7x7, partner max 1 µM) is -0.0503

The recorded Bliss excess for CC(=O)c1c(C)c2cnc(Nc3ccc(N4CCNCC4)cn3)nc2n(C2CCCC2)c1=O [Palbociclib] + CC1(C)CCC(CN2CCN(c3ccc(C(=O)NS(=O)(=O)c4ccc(NCC5CCOCC5)c([N+](=O)[O-])c4)c(Oc4cnc5[nH]ccc5c4)c3)CC2)=C(c2ccc(Cl)cc2)C1 [Venetoclax] (first compound max 10 µM, 7x7, partner max 1 µM) is 0.0267

###

System: ES4 (Ewing's Sarcoma)
Assay: combination Emax (second highest fraction inhibited in the dose matrix, 72 h); higher = more inhibition; extreme values may be limits of the assay
Parameter Measured: combination Emax

The recorded combination Emax for CCN(CCO)CCCOc1ccc2c(Nc3cc(CC(=O)Nc4cccc(F)c4)[nH]n3)ncnc2c1 [AZD2811] + O=C(c1cc(Cc2n[nH]c(=O)c3ccccc23)ccc1F)N1CCN(C(=O)C2CC2)CC1 [Olaparib] (first compound max 1 µM, 7x7, partner max 10 µM) is 0.47

The recorded combination Emax for CN(CCO)CC[C@H](CSc1ccccc1)Nc1ccc(S(=O)(=O)NC(=O)c2ccc(N3CCC([C@@H](O)c4ccccc4-c4ccc(Cl)cc4)CC3)cc2)cc1S(=O)(=O)C(F)(F)F [AZD4320] + Cc1cc2ncnn2cc1Nc1ncc2c(n1)n(C1CCOCC1)c(=O)n2C [AZD7648] (first compound max 1 µM, 7x7, partner max 10 µM) is 0.619

The recorded combination Emax for Cn1cnc2c(F)c(Nc3ccc(Br)cc3Cl)c(C(=O)NOCCO)cc21 [Selumetinib] + C=CCn1c(=O)c2cnc(Nc3ccc(N4CCN(C)CC4)cc3)nc2n1-c1cccc(C(C)(C)O)n1 [AZD1775] (first compound max 10 µM, partner max 1 µM) is 0.433

###

Test system: HCC1806 (Breast Carcinoma)
Assay: combination Emax (second highest fraction inhibited in the dose matrix, 72 h); higher = more inhibition; extreme values may be limits of the assay
Parameter Measured: combination Emax
Please reply with the value in numeric form only.

The recorded combination Emax for Cc1c2c(nn1C)CSCc1cc(n(C)n1)CSc1cc(c3ccccc3c1)OCCCc1c(C(=O)O)n(C)c3c-2c(Cl)ccc13 [AZD5991] + Cn1cnc2c(F)c(Nc3ccc(Br)cc3Cl)c(C(=O)NOCCO)cc21 [Selumetinib] (first compound max 1 µM, 7x7, partner max 3 µM) is 0.667

The recorded combination Emax for C[C@@H](c1ccc2nccn2c1)n1nnc2ncc(-c3cnn(C)c3)nc21 [Savolitinib] + CN(CC[C@H](CSC1=CC=CC=C1)NC2=C(C=C(C=C2)S(=O)(=O)NC(=O)C3=CC=C(C=C3)N4CCC(CC4)[C@H](C5=CC=CC=C5C6=CC=C(C=C6)Cl)O)S(=O)(=O)C(F)(F)F)CCO [AZD4320] (first compound max 1 µM, 7x7, partner max 1 µM) is 0.436

The recorded combination Emax for CC1(C)CCC(CN2CCN(c3ccc(C(=O)NS(=O)(=O)c4ccc(NCC5CCOCC5)c([N+](=O)[O-])c4)c(Oc4cnc5[nH]ccc5c4)c3)CC2)=C(c2ccc(Cl)cc2)C1 [Venetoclax] + Cn1cnc2c(F)c(Nc3ccc(Br)cc3Cl)c(C(=O)NOCCO)cc21 [Selumetinib] (first compound max 1 µM, 7x7, partner max 3 µM) is 0.359

The recorded combination Emax for COc1cc2ncnc(Nc3ccc(F)c(Cl)c3)c2cc1OCCCN1CCOCC1 [Gefitinib] + CC(C)n1c(=O)n(C)c2cnc3cc(F)c(-c4ccc(OCCCN5CCCCC5)nc4)cc3c21 [AZD1390] (first compound max 10 µM, 7x7, partner max 0.3 µM) is 0.436

The recorded combination Emax for COc1cccc(OCCCN)c1-c1cc(Nc2cnc(C#N)cn2)n[nH]1 [Prexasertib] + CN(C)CCCOc1ccc(-c2ccc3ncc4c(c3c2)n(C2CCOCC2)c(=O)n4C)cn1 [AZD0156] (first compound max 1 µM, 7x7, partner max 1 µM) is 0.967

The recorded combination Emax for COc1cccc(OCCCN)c1-c1cc(Nc2cnc(C#N)cn2)n[nH]1 [Prexasertib] + C=CCn1c(=O)c2cnc(Nc3ccc(N4CCN(C)CC4)cc3)nc2n1-c1cccc(C(C)(C)O)n1 [AZD1775] (first compound max 1 µM, partner max 1 µM) is 0.983

The recorded combination Emax for CCN(CCO)CCCOc1ccc2c(Nc3cc(CC(=O)Nc4cccc(F)c4)[nH]n3)ncnc2c1 [AZD2811] + C=CCn1c(=O)c2cnc(Nc3ccc(N4CCN(C)CC4)cc3)nc2n1-c1cccc(C(C)(C)O)n1 [AZD1775] (first compound max 1 µM, partner max 1 µM) is 0.867
